Subject of test: T1, human CD40 ECD (human, UniProt P25942 21-193)
T1 construct: extracellular domain
Test protocol: ELISA on coated ECD, one antibody concentration (not given)
Parameter measured: binding result

{"Binder": "1.134.9-u1-IgG1L (antibody, V domains shown, fully human IgG1, lambda) VH: QVQLQESGPGLVKPSGTLSLTCAVSGGSISSYNWWSWVRQPPGKGLEWIGEIYHGGNTNYNPSLKSRVTMSVDNSKNQFSLKLSSVTAADTAVYYCARAPGDWGGSPYFDFWGQGTLVTVSS VL: SSELTQDPAVSVALGQTVRITCQGDNLRTYYASWYQQKPGQAPILLIYGRNKRPSGIPDRFSGSSSGNTASLTITGAQAEDEAAYYCNSRDSSGNPVVFGGGTKLTVL", "Val": "no binding"}
{"Binder": "1.186.19-u1-IgG1K (antibody, V domains shown, fully human IgG1, kappa) VH: QVHLVESGGGLVKPGGSLRLSCAASGFTFSDYYMGWIRQAPGQGLEWVSYISGSGNTIYYADSVKGRFTISRDNAKNSLYLQMNSLRADDTAVYFCAKERGAAGAGWFDPWGQGTLVTVSS VL: DIQMTQSPSSVSASVGDRVTITCRASQGISSWLAWYQQKPGKAPKLLIYAASSLQGGVPSRFSGSGSGTDFTLTISSLQPEDFATYHCQQVNSFPWTFGQGTKVEIK", "Val": "no binding"}
{"Binder": "1.214.23-u1-IgG1K (antibody, V domains shown, fully human IgG1, kappa) VH: QVQLQESGPGLVKPSGTLSLTCVVSGGSISNRNWWSWVRQPPGKGLEWIGEIFHSGNTNYNPSLKSRVTISVDKSKNQFSLKVNSVTAADTAVYYCAKSFAVALDSWGQGTLVTVSS VL: DIQLTQSPSFLSASVGDRVTITCRASQDINSYLAWCQQKPGKAPKLLIYAASSLQSGVPSRFSGTGSGTEFTLTISSLQPEDFATYYCQQLFSYPITFGQGTRLEIK", "Val": "no binding"}
{"Binder": "1.7.10-u1-IgG1K (antibody, V domains shown, fully human IgG1, kappa) VH: QVHLVESGGGLVKPGGSLRLSCAASGFTFSDYYMSWIRQAPGKGLEWVSYISGSGNTIYYADSVKGRFTISRDNAKNSLYLQMNSLRADDTAVYFCARERGAAGTGWFDPWGQGTLVTVSS VL: DIQMTQSPSSVSASVGDRVTITCRASQGISSWLAWYQQKPGKAPKLLIYAASSLQGGVPSRFSGSGSGTDFTLTISSLQPEDFATYYCQQVNSFPWTFGQGTKVEIK", "Val": "no binding"}

Origin of the recorded values: patent US20210171647A1
